This collection of values is drawn from PubChem BioAssay AID330.

Test system: P388 leukemia ip, CD2F1 mice, survival T/C
assayNotes: NCI In Vivo Anticancer Drug Screen. Data for tumor model P388 Leukemia (intraperitoneal) in CD2F1 (CDF1) mice
experimentalContext: endpoint: median survival time; dose: 200.0 mg/kg/injection; schedule: Q01DX005 (ip); vehicle: Klucel (hydroxypropylcellulose) (HPC); higher = longer survival
Inconclusive results and toxic doses are left out. Square brackets hold non-standard residues; d marks the D form. Peptide text beside a SMILES is read from it. * marks the point of attachment. Cbz = O=C(OCc1ccccc1)*; Nva = CCC[CH](N)C(=O)O
Field: T/C. Provide a value for each of the compounds that follow.

[in] Which T/C reading was recorded for the compound COc1cc2c(cc1OC)C(c1ccc([N+](=O)[O-])c(C)c1)=NCC2 ?
[out] 96 % of control

[in] Which T/C reading was recorded for the compound CCCC(NC(=O)OCc1ccccc1)C(=O)NC(Cc1ccc(O)cc1)C(=O)O (stereo not given) (Cbz-[Nva]-Tyr-OH; configuration not given here) ?
[out] 94 % of control

[in] Which T/C reading was recorded for the compound CCc1cc2c(=O)[nH]c(-c3cccnc3)nc2s1 ?
[out] 88 % of control

[in] Which T/C reading was recorded for the compound CCOC(=O)/C(N=Nc1ccccc1Cl)=C(\C)O ?
[out] 101 % of control

[in] Which T/C reading was recorded for the compound CCOC(=O)C(=CNc1cc(OC)cc2cccnc12)C(=O)OCC ?
[out] 88 % of control
